Where these numbers come from: paper PMC9230201

Assay: Urinary excretion of phenolic metabolites after intake of the GCPE nutraceutical
Conditions: week 8, interval 6–9 h
Amount excreted in urine, 6-9 h for assorted compounds
Report the figure in µmol without appending any unit label.

Past entries and their recorded results:
O=C(O)CCc1ccc(O)c(O[C@@H]2O[C@H](C(=O)O)[C@@H](O)[C@H](O)[C@H]2O)c1 [DHCA-3′-glucuronide] :: 0.08
O=C(O)c1ccc(O)c(O)c1 [3,4-Dihydroxybenzoic acid] :: 0.027
COc1cc(/C=C/C(=O)OC2[C@H](O)CC(O)(C(=O)O)C[C@H]2O)ccc1O (stereo partly shown) [4-Feruloylquinic acid] :: 0.03

Continue with the compound presented below.
*Q* Quickly give me recorded Amount excreted in urine, 6-9 h for O=C(O)/C=C/c1ccc(O)c(OS(=O)(=O)O)c1 [CA-3′-sulfate, 4′Hydroxycinnamic acid-3′-sulfate]
*A* 0.9
